- measured_target: HLA-A*01:01
- protocol_details: IEDB peptide-MHC binding, purified MHC/direct/fluorescence; filed as Kd, often an IC50 or EC50 that approximates it; bounds were set here for any values at or beyond the usual limits of such assays
- condition_set: source organism: Mammarenavirus lassaense
measured_quantity: Kd

// Kd lookup, sequence = DIKLIDIAL , result: ≥ 20 µM

###

Please provide measured Kd for the entries that follow.
- measured_target: HLA-A*02:02
- protocol_details: IEDB peptide-MHC binding, purified MHC/competitive/radioactivity; filed as Kd, often an IC50 or EC50 that approximates it; bounds were set here for any values at or beyond the usual limits of such assays
- condition_set: source organism: Trypanosoma cruzi
Write the value in µM as a bare number.

Record for DVSRPTTVV under target or system HLA-A*02:02: Kd reported as 16.3

The observed Kd for RLLPSLLLLL when tested with HLA-A*02:02 stands at 0.00028

###

- measured_target: HLA-B*15:17
- protocol_details: IEDB peptide-MHC binding, purified MHC/competitive/fluorescence; filed as Kd, often an IC50 or EC50 that approximates it; bounds were set here for any values at or beyond the usual limits of such assays
- condition_set: source organism: Orthohantavirus andesense
pKd: −log10 of the molar value.
measured_quantity: pKd

Entry under test: TRDHVNLVL . Its pKd was ≤ 4.70

###

- measured_target: HLA-C*05:01
- protocol_details: IEDB peptide-MHC binding, purified MHC/direct/fluorescence; filed as Kd, often an IC50 or EC50 that approximates it; bounds were set here for any values at or beyond the usual limits of such assays
- condition_set: source organism: Chlamydia trachomatis
measured_quantity: Kd

Lab book: Kd of SLDQSVVEL noted as 51 nM

###

- measured_target: HLA-A*26:01
- protocol_details: IEDB peptide-MHC binding, purified MHC/direct/fluorescence; filed as Kd, often an IC50 or EC50 that approximates it; bounds were set here for any values at or beyond the usual limits of such assays
- condition_set: source organism: Influenza A virus(A/swine/Henan/3/2004(H9N2))
measured_quantity: Kd

For reference, reported Kd for NESGRLIDF stands at ≥ 20 µM

###

- measured_target: HLA-A*01:01
- protocol_details: IEDB peptide-MHC binding, purified MHC/direct/fluorescence; filed as Kd, often an IC50 or EC50 that approximates it; bounds were set here for any values at or beyond the usual limits of such assays
- condition_set: source organism: Orthohantavirus andesense
measured_quantity: Kd

So for TRDHVNLVL , the logged Kd turned out to be ≥ 20 µM

###

- measured_target: HLA-B*08:01
- protocol_details: IEDB peptide-MHC binding, purified MHC/direct/fluorescence; filed as Kd, often an IC50 or EC50 that approximates it; bounds were set here for any values at or beyond the usual limits of such assays
- condition_set: source organism: Mammarenavirus lassaense
measured_quantity: Kd (nM)
# unit: nM | format: bare number

Noted Kd for DIKLIDIAL , tested on HLA-B*08:01: 894

###

- measured_target: HLA-B*57:01
- protocol_details: IEDB peptide-MHC binding, purified MHC/competitive/radioactivity; filed as Kd, often an IC50 or EC50 that approximates it; bounds were set here for any values at or beyond the usual limits of such assays
- condition_set: source organism: Dengue virus 3 Sri Lanka/1266/2000
measured_quantity: pKd
To interpret pKd, take it as minus log10 of a concentration measured in moles per litre.

Measured pKd of KTSLCLMMIL : 8.01

###

- measured_target: HLA-B*15:17
- protocol_details: IEDB peptide-MHC binding, purified MHC/direct/fluorescence; filed as Kd, often an IC50 or EC50 that approximates it; bounds were set here for any values at or beyond the usual limits of such assays
- condition_set: source organism: Salmonella enterica
pKd: −log10 of the molar value.
measured_quantity: pKd

Let me check: MGKTITDVK , system HLA-B*15:17, measured pKd is ≤ 4.70

###

- measured_target: HLA-B*46:01
- protocol_details: IEDB peptide-MHC binding, purified MHC/competitive/fluorescence; filed as Kd, often an IC50 or EC50 that approximates it; bounds were set here for any values at or beyond the usual limits of such assays
- condition_set: source organism: Escherichia coli HS
measured_quantity: Kd

Query ISLWGSLLK yields Kd of ≥ 20 µM

###

- measured_target: HLA-A*03:01
- protocol_details: IEDB peptide-MHC binding, purified MHC/competitive/fluorescence; bounds were set here for any values at or beyond the usual limits of such assays
- condition_set: source organism: Sudan ebolavirus
For each entry below, report its IC50 value.

The value of IC50 measured for the sequence PPDGVRGFP turned out to be 67.1 µM

The sequence listed as GILGSLGLR has a reported IC50 of 15.2 µM

The sequence identified as RKAIDFLLR registered its IC50 at ≥ 212 µM

###

- measured_target: HLA-B*51:01
- protocol_details: IEDB peptide-MHC binding, purified MHC/competitive/fluorescence; filed as Kd, often an IC50 or EC50 that approximates it; bounds were set here for any values at or beyond the usual limits of such assays
- condition_set: source organism: Brucella suis ATCC 23445
measured_quantity: Kd

Measured Kd, ITAVNRYFK : ≥ 20 µM

###

- measured_target: HLA-A*23:01
- protocol_details: IEDB peptide-MHC binding, purified MHC/competitive/radioactivity; filed as Kd, often an IC50 or EC50 that approximates it; bounds were set here for any values at or beyond the usual limits of such assays
- condition_set: source organism: Mammarenavirus guanaritoense
pKd: −log10 of the molar value.
measured_quantity: pKd

Briefly, pKd measured for VPDIPELSY : ≤ 4.11

###

- measured_target: HLA-B*35:01
- protocol_details: IEDB peptide-MHC binding, purified MHC/direct/fluorescence; filed as Kd, often an IC50 or EC50 that approximates it; bounds were set here for any values at or beyond the usual limits of such assays
- condition_set: source organism: Escherichia coli O157:H7
measured_quantity: Kd (nM)
Please give a number only; it is taken to be in nM.

For reference, reported Kd for DISPTNIPL stands at 105

###

- measured_target: HLA-B*57:01
- protocol_details: IEDB peptide-MHC binding, purified MHC/competitive/fluorescence; filed as Kd, often an IC50 or EC50 that approximates it; bounds were set here for any values at or beyond the usual limits of such assays
- condition_set: source organism: Homo sapiens
pKd: −log10 of the molar value.
measured_quantity: pKd

Reported pKd (HLA-B*57:01) for entry RTDNGGWAH is ≤ 4.70

pKd on HLA-B*57:01 for GTEYRLTLY is ≤ 4.70

###

- measured_target: HLA-B*08:01
- protocol_details: IEDB peptide-MHC binding, purified MHC/competitive/fluorescence; filed as Kd, often an IC50 or EC50 that approximates it; bounds were set here for any values at or beyond the usual limits of such assays
- condition_set: source organism: Burkholderia mallei SAVP1
measured_quantity: Kd

Readout Kd for NVMDPMHGA , test system HLA-B*08:01, was ≥ 5 µM

###

- measured_target: HLA-B*35:01
- protocol_details: IEDB peptide-MHC binding, purified MHC/competitive/radioactivity; filed as Kd, often an IC50 or EC50 that approximates it; bounds were set here for any values at or beyond the usual limits of such assays
- condition_set: source organism: Mammarenavirus juninense
measured_quantity: Kd (µM)
// units = µM; emit number, no label

Lab note: sequence TPDNFSSLI tested on HLA-B*35:01; recorded Kd was 15.3

###

- measured_target: HLA-A*02:06
- protocol_details: IEDB peptide-MHC binding, purified MHC/competitive/radioactivity; filed as Kd, often an IC50 or EC50 that approximates it; bounds were set here for any values at or beyond the usual limits of such assays
- condition_set: source organism: Vaccinia virus WR
Give measured pKd for each item. Keep answers brief.
Expect pKd as a plain number equal to -log10 of the molar concentration.

Entry under test: YIYGIPLSL . Its pKd was 4.94

For record KLYIALCKVT the listed pKd is 5.20

For reference, reported pKd for SIPISELSRL stands at 7.11

Form field pKd, entry NITTLLNETA : 5.95

Just so you know, measured pKd for IMRNFLRSI came out at 5.41

pKd in this record for LATLNTLIT : 4.85

###

For each of the sequences below, state its pKd.
- measured_target: HLA-A*33:01
- protocol_details: IEDB peptide-MHC binding, purified MHC/competitive/radioactivity; filed as Kd, often an IC50 or EC50 that approximates it; bounds were set here for any values at or beyond the usual limits of such assays
- condition_set: source organism: Dengue virus 3 Martinique/1243/1999
Reminder that pKd means the negative base-10 logarithm of the concentration expressed in mol/L.

Observed pKd on HLA-A*33:01, entry DVIGERIKR , equals 7.41

Record VYTQLCDHR ; system HLA-A*33:01; pKd = 5.72

Origin of measurements: the Immune Epitope Database (IEDB)
